settings: pH 6.8
measured-parameter: aqueous solubility (µg/mL)
Provide only the numeric value, understood in µg/mL.

Known results for compounds:
> print(dat)
                                        smi  endpoint.result
1  COC(=O)c1cc(F)c(C)c(NC(=O)CCCc2ccccn2)c1               43
2              Cc1ccccc1OCCn1c(N)nc2ccccc21             40.6
3           Nc1cncc(-c2ccc(CN3CCCCC3)cc2)c1               26
4            CN(C)c1cc(CNC(=O)C2CCOCC2)ccn1             41.2
5  CCC1(CC)NC(=O)N(CC(=O)N2CCOCC3(CCCC3)C2)C1=O             63.4
6            CN(CC(=O)N(C)C)Cc1cc(C#N)ccc1F             35.4
7  Cc1ccccc1N1C(=O)c2ccc(C(=O)NC(C)(C)C)cc2C1=O             49.9
8        N#Cc1ccc(OCc2nnc(S)n2-c2ccccc2)cc1             45.7

Any idea what its aqueous solubility is? The compound is Cn1ncc2c(Oc3cccc(Oc4ccccn4)c3)ncnc21 39.8

Any idea what its aqueous solubility is? The compound is O=C(NCCc1cn2c(n1)CCCC2)c1ccccn1 47.6

Any idea what its aqueous solubility is? The compound is Cc1nccn1CCCN1C(=O)SC(C)(C)C1=O 29.2

Any idea what its aqueous solubility is? The compound is N#Cc1cc(F)c(N2CCN(CCO)CC2)c(F)c1 41.3

Any idea what its aqueous solubility is? The compound is Cc1cc(N2CCCCC2)nc(CNC(=O)c2ccccc2Cl)n1 65.2

Any idea what its aqueous solubility is? The compound is CN(Cc1ccccc1Br)C(=O)Nc1ccc(C(=O)N2CCCC2)cc1 69.4
